Kindly state Percent Effect for each of the entries shown.
tested on: Wolbachia pipientis; assay: Anti-Wolbachia Cell-Based Screen; assay type: functional; set-up: scale not given: in the data most compounds retested in dose-response had high values; conditions: 5 µM
Out of some 48,000 compounds screened, about 13,000 (27%) showed an effect of 50% or more. Some of the results follow.
Dear colleague, please return just the value in %, with no unit written.

Using the record for Cc1ccccc1-n1cc(CN(C)C[C@@H]2CCCN3CCCC[C@H]23)cn1 , report its Percent Effect.
9.143

Using the record for COc1ccc(C(C)Nc2ncc(C(N)=O)cc2Cl)cc1OC (stereo unspecified) , report its Percent Effect.
2.755

Using the record for COc1ncc(NCc2csc(-c3ccco3)n2)cc1C(N)=O , report its Percent Effect.
-5.121

Using the record for COC[C@H]1CCCN1c1nccc(-c2cnn(-c3ccccc3C)c2)n1 , report its Percent Effect.
94.7

Using the record for COCCNc1ncc(-c2cc(C)no2)c(-c2ccco2)n1 , report its Percent Effect.
96.17

Using the record for Cc1cnc(N2CCCC(O)C2)nc1-c1ccnn1C (stereo unspecified) , report its Percent Effect.
-3.995

====

Kindly state Percent Effect for each of the entries shown.
test system: Wolbachia pipientis; test: Anti-Wolbachia Cell-Based Screen; assay type: functional; design: scale not given: in the data most compounds retested in dose-response had high values; conditions: 5 µM
The whole screen tested about 48,000 compounds, of which about 13,000 (27%) showed an effect of 50% or more. Some of the results follow.
Dear colleague, please return just the value in %, with no unit written.

Using the record for Cc1cccc(C(=O)NCC2CCS(=O)(=O)C2)n1 (configuration not stated) , report its Percent Effect.
20.7

Using the record for Cc1cc(C(=O)NC2(C#N)CCSCC2)n(C)n1 , report its Percent Effect.
-9.689

Using the record for N#Cc1ccc(CN2C[C@@H]3OCC(=O)N(CC(N)=O)[C@@H]3C2)cc1 , report its Percent Effect.
-3.646

Using the record for Cc1c(C(=O)N(C)C)cccc1N(C)S(C)(=O)=O , report its Percent Effect.
107

Using the record for O=C(NCC1CCS(=O)(=O)C1)c1ccc2cccc(Cl)c2n1 (configuration not stated) , report its Percent Effect.
-11.54

Using the record for O=C1COC[C@H]([C@H](O)c2ccc(NC(=O)c3ccco3)cc2)N1 , report its Percent Effect.
-8.877

Using the record for O=C(NCC1CCS(=O)(=O)C1)c1ccco1 (configuration not stated) , report its Percent Effect.
88.86

Using the record for CN(C)CCCNC(=O)C(c1cccc(F)c1)N(C)C (configuration not stated) , report its Percent Effect.
6.227

Using the record for Cc1ccc(NC(=O)NCC2CCS(=O)(=O)C2)cc1Cl (configuration not stated) , report its Percent Effect.
41.82

Using the record for O=C(NCC1CCS(=O)(=O)C1)Nc1ccccn1 (configuration not stated) , report its Percent Effect.
11.69

Using the record for CN(C(=O)c1ccncc1)c1ccccc1S(C)(=O)=O , report its Percent Effect.
8.968

Using the record for O=C(NCC1CC1)c1ccc(NC(=O)c2ccco2)cc1 , report its Percent Effect.
109.6

====

tested on: Wolbachia pipientis; assay: Anti-Wolbachia Cell-Based Screen; assay type: functional; parameters: scale not given: in the data most compounds retested in dose-response had high values; settings: 5 µM
The whole screen tested about 48,000 compounds, of which about 13,000 (27%) showed an effect of 50% or more. The list shows a part of the results.
Test Readout: Percent Effect (%)
Dear colleague, please return just the value in %, with no unit written.

Using the record for Cc1n[nH]cc1CNc1ccc2c(c1)N(C(=O)OC(C)(C)C)CCC2 , report its Percent Effect.
-11.3

Using the record for CCn1c(=O)nc2n1C(=O)N(c1cccc(Cl)c1)C2 , report its Percent Effect.
5.675

Using the record for CC(C)c1nc(C(=O)N2CCc3ccccc3C2C(=O)O)cs1 (configuration not stated) , report its Percent Effect.
-0.5058

Using the record for CCc1nn(C)c(CC)c1CNC(=O)Nc1cccc2c1CCN2C , report its Percent Effect.
-5.732

Using the record for O=S(=O)(Cc1ccccc1F)NC(CO)c1ccco1 (configuration not stated) , report its Percent Effect.
6.014

Using the record for CCOC(=O)NC(CNC(=O)c1cn(C)cn1)CC(C)C (configuration not stated) , report its Percent Effect.
-4.121

Using the record for CC(C)c1nnc(NC(=O)CCc2cc(F)ccc2F)[nH]1 , report its Percent Effect.
-72.05

Using the record for CCc1c(C)nc(N)nc1NCCSCc1[nH]cnc1C , report its Percent Effect.
-21.58

Using the record for O=C(NCCNc1cc(N2CCCC2)ncn1)c1cnccn1 , report its Percent Effect.
10.51

Using the record for CCCC(C)(C)NC(=O)c1cnc(CC)s1 , report its Percent Effect.
-7.388

Using the record for OCCNc1cc(-c2ccccc2)ncn1 , report its Percent Effect.
107.4

Using the record for CCS(=O)(=O)CC(=O)NC1(c2ccc(Cl)c(Cl)c2)CC1 , report its Percent Effect.
-4.937

====

Kindly state Percent Effect for each of the entries shown.
test system: Wolbachia pipientis; assay: Anti-Wolbachia Cell-Based Screen; assay type: functional; design: scale not given: in the data most compounds retested in dose-response had high values; conditions: 5 µM
Out of some 48,000 compounds screened, about 13,000 (27%) showed an effect of 50% or more. This is one part of the list.
Dear colleague, please return just the value in %, with no unit written.

Using the record for Cn1cnc2c(N3CCCC3)nc(C3CCN(CC4CC4)CC3)cc21.O=C(O)C(F)(F)F.O=C(O)C(F)(F)F , report its Percent Effect.
-3.967

Using the record for CSC1(CNC(=O)c2ccn(-c3ccccc3F)n2)CCOCC1 , report its Percent Effect.
-3.806

Using the record for Cc1ccc(-c2nn3c(nc2=O)-c2ccccc2NC3C(=O)O)cc1C (stereo unspecified) , report its Percent Effect.
-8.788

Using the record for O=C(NCC1(O)CCSC1)c1ccn(-c2ccccc2F)n1 (stereo unspecified) , report its Percent Effect.
-10.8

Using the record for O=C(NCC1CCC2(CC1)OCCO2)c1cccc(-n2cccn2)c1 , report its Percent Effect.
116.2

Using the record for CSC1(CNC(=O)NC(C)c2ccc(F)cc2)CCOCC1 (stereo unspecified) , report its Percent Effect.
-5.884

====

Kindly state Percent Effect for each of the entries shown.
tested on: Wolbachia pipientis; assay: Anti-Wolbachia Cell-Based Screen; format: functional; parameters: scale not given: in the data most compounds retested in dose-response had high values; conditions: 5 µM
Screen size: about 48,000 compounds; about 13,000 (27%) showed an effect of 50% or more. Some of the results follow.
Dear colleague, please return just the value in %, with no unit written.

Using the record for Cc1cc(NC(=O)c2nc(N3CCCC3)ncc2Cl)nc(C(C)C)n1 , report its Percent Effect.
-9.396

Using the record for COc1cccc(CN2CCCCC2CN2CCOCC2)c1F (stereo unspecified) , report its Percent Effect.
24.12

Using the record for CC(O)CN(c1ccccc1)S(=O)(=O)c1cc(C(=O)O)cc2c1CCC2 (stereo unspecified) , report its Percent Effect.
5.053

Using the record for Cn1cc(CN2CCOC[C@H]2c2nc(C(C)(C)C)co2)c2ccccc21 , report its Percent Effect.
-4.393

Using the record for Cc1ccc(CN2CCC(Cc3nnc(CO)n3C)CC2)cc1C , report its Percent Effect.
-13.27

Using the record for O=C(CCC1CCCO1)NCc1ccc(Br)cc1F (stereo unspecified) , report its Percent Effect.
24.29

Using the record for Cl.Cl.OC(CN1CCN(Cc2ccc(F)cc2)CC1)C1CC1 (stereo unspecified) , report its Percent Effect.
-6.832

Using the record for CC(=O)c1ccc(-n2ccc3nc(N4CCCC4)ncc3c2=O)cc1 , report its Percent Effect.
-1.476

Using the record for Oc1cccc(CN2C[C@H]3CC[C@@H]2CN(Cc2ccc(F)cc2)C3)c1 , report its Percent Effect.
7.382

Using the record for Clc1cc(CN2CCCC2Cn2cncn2)c2ncccc2c1 (stereo unspecified) , report its Percent Effect.
9.576

Using the record for CCN1CCN(c2ccc(CNC(=O)c3c(C)noc3C)cn2)CC1 , report its Percent Effect.
9.474

====

test system: Wolbachia pipientis; assay: Anti-Wolbachia Cell-Based Screen; format: functional; design: scale not given: in the data most compounds retested in dose-response had high values; settings: 5 µM
Among all 48,000 compounds or so, about 13,000 (27%) showed an effect of 50% or more. This is one part of the list.
Test Readout: Percent Effect (%)
Dear colleague, please return just the value in %, with no unit written.

Using the record for COc1ccc(F)cc1CSCC(=O)N(CCC#N)CCC#N , report its Percent Effect.
-2.312

Using the record for CCn1cc(CN(C)S(=O)(=O)c2cnn(CC)c2C)c(C)n1 , report its Percent Effect.
-1.191

Using the record for OCC1CCCN1c1cc(NCc2ccsc2)ncn1 (configuration not stated) , report its Percent Effect.
106

Using the record for COCc1ccccc1CNc1cc(N2CCCC2CO)ncn1 (configuration not stated) , report its Percent Effect.
1.416

Using the record for CN(Cc1nnc2n1CCC2)S(=O)(=O)c1ccc(Br)cc1Cl , report its Percent Effect.
10.86

Using the record for CCc1csc(NC(=O)NCc2ccccn2)n1 , report its Percent Effect.
-8.56

Using the record for CCN(Cc1noc(C)n1)C(=O)C(c1ccc(C)cc1)N(C)C (configuration not stated) , report its Percent Effect.
-5.423

Using the record for COc1cc(OC)cc(N2CCC(NCc3cccs3)C2=O)c1 (configuration not stated) , report its Percent Effect.
-13.31

Using the record for N#Cc1c(Cl)nsc1NCC1(c2ccccc2)CCC1 , report its Percent Effect.
12.51

Using the record for Cc1ncsc1CNc1cc(N2CCCC2CO)ncn1 (configuration not stated) , report its Percent Effect.
92.3

Using the record for CCn1ncc(S(=O)(=O)N[C@@H]2CC[C@@H](n3ccnc3)[C@@H]2O)c1C , report its Percent Effect.
136.9

Using the record for CC(=O)N1CCC(N[C@@H]2CC[C@@H]2NS(=O)(=O)c2cccnc2)CC1 , report its Percent Effect.
-3.734

Data origin, for the record: ChEMBL document CHEMBL3988442
